- Test system: A498 renal
- test_method_notes: NCI tumour cell line growth inhibition, 48 h
result_type: TGI

[in] # get_value(readout= TGI, system= A498 renal) for Cc1cccc2c1NC(c1c(C)[nH]c3ccccc13)C2 (stereo unspecified)
[out] > 100 µM

[in] # get_value(readout= TGI, system= A498 renal) for `N#CCCN(CCN(CCN(C(=O)Nc1ccccc1)c1ccccc1)C(=O)Nc1ccccc1)C(=O)Nc1ccccc1`
[out] > 100 µM

[in] # get_value(readout= TGI, system= A498 renal) for N#CC1(Cc2ccccc2Cl)c2ccccc2C=CN1C(=O)c1ccccc1 (stereo unspecified)
[out] > 100 µM

[in] # get_value(readout= TGI, system= A498 renal) for `CCOC(=O)n1c2ccccc2c2c(O)c(OC)c3c(c21)C(=O)NC3=O`
[out] > 100 µM

[in] # get_value(readout= TGI, system= A498 renal) for CCOC(=O)C(C(N)=O)c1nc2cc([N+](=O)[O-])ccc2nc1/C=C(\O)c1ccc(C)cc1 (stereo unspecified)
[out] > 67.7 µM

[in] # get_value(readout= TGI, system= A498 renal) for `Nc1c2c(nc3ccccc13)-c1ccccc1CCC2`
[out] 21.4 µM

----------
- Test system: OVCAR-5 ovarian
- test_method_notes: NCI tumour cell line growth inhibition, 48 h
I'd be grateful if you could share measured TGI for these entries.

[in] Return reported TGI; argument: O=C1OS2(OC(=O)c3cccc4cccc2c34)c2ccccc21 (stereo not given)
[out] > 100 µM

[in] Return reported TGI; argument: `O=C1NC(N2CCOCC2)=N/C1=C\c1ccccc1`
[out] > 100 µM

[in] Return reported TGI; argument: `COc1cc(OC)cc(-c2n[nH]nc2-c2ccc3c(c2)OCO3)c1`
[out] > 100 µM

[in] Return reported TGI; argument: `COc1ccc(NC(=O)c2cc(NC(=O)/C=C/c3ccccc3)c(OC)c(OC)c2)cc1`
[out] > 100 µM

[in] Return reported TGI; argument: `COc1cc2[nH]c(=O)[nH]c2c2c(C)c[nH]c12`
[out] > 100 µM

[in] Return reported TGI; argument: `Cc1cc(C)c(-c2noc(-c3ccc(Cl)cc3)c2C2=NCCN2)c(C)c1`
[out] > 100 µM

[in] Return reported TGI; argument: `COC1=C(NC(C)=O)C(=O)c2nc3n(c2C1=O)CCC3`
[out] 34.6 µM

[in] Return reported TGI; argument: COC(CO[Si](C)(C)N[Si](C)(C)OCC(OC)c1ccccc1)c1ccccc1 (stereo not given)
[out] > 100 µM

[in] Return reported TGI; argument: COc1ccc(C2CC(c3cccc(Nc4ccnc5cc(Cl)ccc45)c3)=NN2c2ccccc2)cc1 (stereo not given)
[out] 61.7 µM

[in] Return reported TGI; argument: `NS(=O)(=O)OC[C@H]1O[C@@H](n2cnc3c(N[C@H]4CCc5ccccc54)ncnc32)[C@H](O)[C@@H]1O`
[out] 2.24 µM

[in] Return reported TGI; argument: O=C1/C=C(/c2ccc(O)cc2)[C@H](O)Cc2ccc(OC3OC(CO)C(O)C(O)C3O)cc2O1 (stereo not given in full) (tested in a mixture with another compound)
[out] > 100 µM

[in] Return reported TGI; argument: `O=C(NC12CC3CC(CC(C3)C1)C2)n1cnc2cncnc21`
[out] > 100 µM

[in] Return reported TGI; argument: COC1=CC(=O)c2c(O)c3c(c(O)c2C1=O)CC(C)(O)OC3 (stereo not given)
[out] 14.6 µM

[in] Return reported TGI; argument: `O=c1[nH]/c(=C/c2cccs2)c(=O)[nH]/c1=C/c1ccc(OCc2ccccc2)cn1`
[out] > 69.5 µM

[in] Return reported TGI; argument: `CCOc1cccc2cccnc12`
[out] > 100 µM

[in] Return reported TGI; argument: `C/C(=N\NC(=S)N/N=C(\C)c1ccccn1)c1ccccn1`
[out] > 100 µM

[in] Return reported TGI; argument: c1cc(C2O[C@H]3CCCN3[C@@H]2c2ccncc2)ccn1 (stereo not given in full)
[out] > 100 µM

[in] Return reported TGI; argument: COC(=O)CC[C@@H](NC(=O)C(C)NC(=O)COC1C(O)C(COC(=O)CCCCCCCCCCNC(=O)c2ccc([N+](=O)[O-])c3[nH]c4cc(Br)ccc4c(=O)c23)OC(OCc2ccccc2)C1NC(C)=O)C(N)=O (stereo not given in full)
[out] > 100 µM

[in] Return reported TGI; argument: `CC(=O)NC1=NC(=O)/C(=C/c2ccc(Cl)cc2Cl)N1C`
[out] > 100 µM

[in] Return reported TGI; argument: O=C(CC1Sc2ccccc2NC1=O)Nc1ccc([N+](=O)[O-])cc1[N+](=O)[O-] (stereo not given)
[out] 62.3 µM
